Measured melting point by item

1) O=C(O)C(Br)c1ccc(Cl)cc1 (stereo not drawn)    92 to 93 °C
2) COc1ccccc1CSc1c(O)cc(-c2ccccc2)oc1=O    152 to 153 °C
3) COC(=O)C1=C(C(=O)OC)c2c(c3ccccc3n2C)CC1    113 °C
4) CN1Cc2c(I)ncn2-c2ccc(F)c(Cl)c2C1=O    218 to 219 °C
5) CC(C)(C)OC(=O)NC1C=Cc2ccccc2CC1 (stereo not drawn)    146 to 148 °C
6) Cc1ccc(CNc2cccc(C(=O)O)c2C(=O)O)o1    305 to 307 °C

Inquiry: Requested field: melting point. Item: Nc1nc(N)c2ncn([C@H]3C=C[C@@H](O)C3)c2n1 (racemic)
Reply text: 167 to 170 °C

Inquiry: Entry COC(=O)c1cc(C(=O)c2ccc(OC)c3ccccc23)cn1C has what melting point?
Reply text: 162 °C

Inquiry: May I ask what melting point has been recorded for Clc1ccc(CCOc2ncnc3ncccc23)cc1 ?
Reply text: 126 to 128 °C

Inquiry: Any idea what its melting point is? The molecule is N#Cc1ccc(NC(=O)CCC2CCCC(=O)O2)cc1 (stereo not drawn)
Reply text: 145 to 148 °C

Inquiry: Find the recorded melting point belonging to COC(=O)c1ccc(CC(C)NCC(O)c2ccc(O)c(NS(C)(=O)=O)c2)cc1 (stereo not drawn) and report it.
Reply text: 133 to 140 °C

Inquiry: If you can, please state the reported melting point value of Cn1c(COc2nc(CCC(=O)O)oc2-c2ccccc2)nc2ccccc21 .
Reply text: 222 to 224 °C

Inquiry: Entry under review: Cn1cc(C(=O)NCc2ccc(Cl)cc2)c(=O)c2cc(CN3CCOCC3)cc(C#CCCCO)c21 . Reported melting point?
Reply text: 179 to 182 °C

Inquiry: What value of measured melting point is listed for S=c1[nH]ccn1C1CCc2ccccc21 (stereo not drawn) ?
Reply text: 136 to 137 °C

###

Listing: melting point of selected molecules

Please review the entries below; each comes with its answer.
1. CC(C)(Sc1ccc2c(-c3ccccc3F)noc2c1Cl)C(=O)O    149 °C
2. Cc1nc2c(N[C@@H]3c4ccccc4C[C@H]3O)cc(C(=O)N(C)C)cc2n1C (relative stereo)    219 to 221 °C
3. CCCC(=O)c1cc2c(=O)c(C(=O)O)cn(CC)c2cc1C    208 to 209 °C
4. Cc1ccc(S(=O)(=O)Nc2cc(C3CCCC3)c([N+](=O)[O-])cc2Br)cc1    122 °C
5. CCCP(=O)(O)CCCN    210 to 213 °C
6. O=Cc1ccc2c(c1)Sc1ccc(F)cc1C=C2    137 to 139 °C
7. CCCc1c(S)ccc2c(=O)cc(C(=O)OC)oc12    98 to 99 °C
8. CN(CCOc1ccc([N+](=O)[O-])cc1F)c1ccccn1    95 to 96 °C

Inquiry: Data request, read-out melting point, for O=c1c(CCO)c(O)c2cccnc2n1-c1ccccc1
Reply text: 235 to 236 °C

Inquiry: # get_value(readout='melting point', item= CC(C)CCn1cc(-c2cnc3c(c2)N(Cc2c(F)ccc(F)c2Cl)CCN3)cn1 )
Reply text: 134 °C

Inquiry: Returns the measured melting point for the input molecule. Input: N#Cc1ccc(C=CCCC(=O)O)cc1
Reply text: 154 to 156 °C

Inquiry: Data request, read-out melting point, for Cc1[nH]c(=S)[nH]c(=O)c1Cc1cccnc1
Reply text: 328 to 331 °C

Inquiry: Look at this molecule and give its reported melting point. CSc1nc(Cl)nc(Cl)n1
Reply text: 57 to 59 °C

Inquiry: Record request: melting point value, item O=C(CCSC(=S)Nc1ccc(Cl)cn1)c1ccccc1
Reply text: 159 °C

Inquiry: What value of melting point has been reported for the following molecule? NC(=O)c1cccc(-c2cc(OC(=O)NC3CCCCC3)ccc2O)c1
Reply text: 128 to 130 °C

Inquiry: Recorded melting point of Cc1c(O)nc2sc(SCc3ccccc3)nn2c1=O , please.
Reply text: 247 to 250 °C
